- System: H929 cells
- test: CellTiter-Glo cell viability, H929
- Assay type: cell-based
- experimental conditions: Homo sapiens, NCI-H929; H929, 72 h, mean ± SD
attribute measured: IC50
Could you write the number and then its unit?

So, O=C(CCC=C1CCN(C(=O)OCc2ccccc2)CC1)NO [Compound 10] ? Its IC50 was 18 µM

----------
- Test system: AMO-BZB cells
- test: CellTiter-Glo cell viability, AMO-BZB
- Assay type: cell-based
- experimental conditions: Homo sapiens; AMO-BZB (bortezomib-resistant), 72 h, mean ± SD
attribute measured: pIC50
In textbook form, pIC50 equals minus log to base ten of the concentration in mol/L.

So, O=C(CCC=C1CCN(C(=O)OCc2ccccc2)CC1)NO ? Its pIC50 was 4.31

----------
- target system: HDAC6 human recombinant enzyme (Homo sapiens, UniProt Q9UBN7)
- Sequence (Q9UBN7 1-1215): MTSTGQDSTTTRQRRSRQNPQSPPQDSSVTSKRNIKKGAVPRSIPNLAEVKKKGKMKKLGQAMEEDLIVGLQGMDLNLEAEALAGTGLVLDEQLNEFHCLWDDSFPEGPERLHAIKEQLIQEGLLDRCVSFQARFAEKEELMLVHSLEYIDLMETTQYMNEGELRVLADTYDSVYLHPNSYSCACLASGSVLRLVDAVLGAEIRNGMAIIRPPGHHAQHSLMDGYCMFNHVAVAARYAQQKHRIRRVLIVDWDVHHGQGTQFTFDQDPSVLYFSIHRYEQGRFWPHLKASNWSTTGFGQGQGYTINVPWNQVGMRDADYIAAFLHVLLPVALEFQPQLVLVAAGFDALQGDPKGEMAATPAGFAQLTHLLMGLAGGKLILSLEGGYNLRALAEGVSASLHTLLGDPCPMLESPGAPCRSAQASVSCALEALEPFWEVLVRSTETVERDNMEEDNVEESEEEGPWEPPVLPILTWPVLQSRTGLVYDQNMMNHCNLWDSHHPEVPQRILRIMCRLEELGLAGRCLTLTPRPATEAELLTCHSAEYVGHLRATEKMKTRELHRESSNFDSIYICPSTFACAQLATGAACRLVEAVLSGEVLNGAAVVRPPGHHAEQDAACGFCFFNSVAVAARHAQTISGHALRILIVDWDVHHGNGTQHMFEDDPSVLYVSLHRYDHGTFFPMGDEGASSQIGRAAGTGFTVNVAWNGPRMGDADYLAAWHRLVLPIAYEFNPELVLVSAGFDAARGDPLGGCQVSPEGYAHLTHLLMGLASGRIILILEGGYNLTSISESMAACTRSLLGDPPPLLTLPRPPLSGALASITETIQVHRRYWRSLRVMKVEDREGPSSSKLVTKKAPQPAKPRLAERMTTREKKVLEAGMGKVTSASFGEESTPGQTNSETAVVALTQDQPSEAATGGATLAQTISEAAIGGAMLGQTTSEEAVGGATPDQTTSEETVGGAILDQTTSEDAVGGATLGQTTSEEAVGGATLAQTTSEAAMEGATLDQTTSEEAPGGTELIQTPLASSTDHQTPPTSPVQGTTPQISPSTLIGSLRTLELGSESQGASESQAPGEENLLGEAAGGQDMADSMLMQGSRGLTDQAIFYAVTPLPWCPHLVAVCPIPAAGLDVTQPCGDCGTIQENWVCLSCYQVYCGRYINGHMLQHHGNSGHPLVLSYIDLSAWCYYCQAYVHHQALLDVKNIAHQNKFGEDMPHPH
- test: Fluorogenic HDAC6 inhibition assay (BPS Bioscience kit)
- experimental conditions: mean ± SD, three independent experiments
attribute measured: IC50 (nM)
Expressed in nM, but write only the number.

So, O=C(CCC=C1CCN(C(=O)OCc2ccccc2)CC1)NO [Compound 10] ? Its IC50 was 1690

All figures here come from paper PMC12472302.
